Tested on: Saccharomyces cerevisiae
Experiment: Antifungal activity against Saccharomyces cerevisiae DSY 417 expressing Candida albicans CDR2 after 40 to 48 hrs by serial dilution method
Assay type: functional, organism-based
TEST_READOUT: IC50 (µM)
Your answer should be a plain number; it is taken to be in µM.

{"MOLECULE": "OC(Cn1cncn1)(Cn1cncn1)c1ccc(F)cc1F [FLUCONAZOLE]", "OUTPUT_UNIT": "µM", "MEASUREMENT": 15}

For the next question, use this molecule.
stdin: Lab note: need IC50 with Saccharomyces cerevisiae for entry C[C@@H]1[C@H](O)[C@@H](C)/C=C/C=C/C=C/C=C/C=C/C=C/C=C/[C@H](O[C@@H]2O[C@H](C)[C@@H](O)[C@H](N)[C@@H]2O)C[C@@H]2O[C@](O)(C[C@@H](O)C[C@@H](O)[C@H](O)CC[C@@H](O)C[C@@H](O)CC(=O)O[C@H]1C)C[C@H](O)[C@H]2C(=O)O [AMPHOTERICIN B] , please look it up.
stdout: 0.55

###

Tested on: Saccharomyces cerevisiae
Assay: Antifungal activity against Saccharomyces cerevisiae DSY 416 expressing Candida albicans MDR1 after 40 to 48 hrs by serial dilution method in presence of 33 uM fluconazole
Type: functional, organism-based
Conditions: DSY 416, MDR1
pIC50: −log10 of the molar value.
TEST_READOUT: pIC50

stdin: Quick one: pIC50 of "CC(=O)O[C@H]1C=C2[C@@H]3CC[C@H]([C@H](C)CCCC(C)C)[C@@]3(C)C[C@@H]3O[C@@]23[C@@]2(CO)CC[C@H](O)C[C@]12O" ?
stdout: > 5.40

###

Tested on: Saccharomyces cerevisiae
Experiment: Antifungal activity against Saccharomyces cerevisiae DSY 415 expressing Candida albicans CDR1 after 40 to 48 hrs by serial dilution method in presence of 33 uM fluconazole
Format: functional, organism-based
TEST_READOUT: IC50 (µM)
Give the value in µM but do not write µM after it.

stdin: Give its IC50 value. Item: "CC(=O)O[C@H]1C=C2[C@@H]3CC[C@H]([C@H](C)CCCC(C)C)[C@@]3(C)C[C@@H]3O[C@@]23[C@@]2(CO)CC[C@H](O)C[C@]12O"
stdout: 31

###

Test system: Saccharomyces cerevisiae
Experiment: Antifungal activity against Saccharomyces cerevisiae DSY 416 expressing Candida albicans MDR1 after 40 to 48 hrs by serial dilution method in absence of fluconazole
Type: functional, organism-based
Conditions: DSY 416, MDR1
pIC50: −log10 of the molar value.
TEST_READOUT: pIC50

stdin: Entry "CC(=O)O[C@H]1C=C2[C@@H]3CC[C@H]([C@H](C)CCCC(C)C)[C@@]3(C)C[C@@H]3O[C@@]23[C@@]2(CO)CC[C@H](O)C[C@]12O" : reported pIC50 = ?
stdout: < 3.98
